Assay Info: antimalarial activity against Dd2 strain (AID 2302)
Condition Details: P. falciparum Dd2 in RBCs, LDH growth readout, 72 h; at 2 µM
The source made the active and inactive calls.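 How the source made its calls: active means growth inhibition above 50% at the single 2 µM test dose, taken to imply half-maximal potency below 2 µM; inactive means the rest.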
I would appreciate it if you answered using one of these outcomes: YES (active), NO (inactive)

GET /call?item= CCNc1cc(C(=O)N[C@@H](Cc2ccccc2)[C@H](O)CNC23CCC(CC2)C3)cc(N2CCCCS2(=O)=O)c1 returns the recorded outcome of this test.
YES

GET /call?item= CC1CCc2c(C(=O)Nc3c(F)cc(F)cc3Br)csc2C1 (stereo not drawn) returns the recorded outcome of this test.
YES

GET /call?item= COc1cc(CCNc2nc(NCc3ccccc3-c3ccccc3)nc(N3CCC(N)CC3)n2)ccc1O returns the recorded outcome of this test.
YES

GET /call?item= Cc1cccc2[nH]c(-c3cccc(-c4cccc(CN5CCC(CO)CC5)c4)c3)nc12 returns the recorded outcome of this test.
YES

GET /call?item= c1ccc(-n2cncn2)cc1 returns the recorded outcome of this test.
YES

GET /call?item= NC(=O)c1cccc(C(=O)Nc2ccc(-c3cccc(-c4nc5ccc(F)cc5[nH]4)c3)cc2)c1 returns the recorded outcome of this test.
NO

GET /call?item= Cc1cc(C)cc(CC(=O)N2CCC(n3c(C)nc4ccc(C)cc43)CC2)c1 returns the recorded outcome of this test.
YES

GET /call?item= COCCNC(=O)c1ccc(OC2CCN(CC(C)=Cc3ccccc3)CC2)c(Cl)c1 returns the recorded outcome of this test.
YES

GET /call?item= Fc1cccc(COc2ccc(-n3ccc4c(NCCCn5ccnc5)ncnc43)cc2Cl)n1 returns the recorded outcome of this test.
NO

GET /call?item= CCNc1cc(C(=O)N[C@@H](Cc2ccccc2)[C@H](O)CNC(CC)c2cccc(Cl)c2)cc(N2CCCC2=O)c1 (stereo partly drawn) returns the recorded outcome of this test.
YES
